assay-method-text: blockers of RIG-like receptor reporter activation – cell-based, Sendai virus stimulus, luciferase, 10K MLSCN set, TLR/RLR signaling modifier project, primary screen (AID 602276);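 also: firefly luciferase from ISG56 promoter only with Renilla not read in this screen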
assay-setup: HEK293 RL24 IRF3 luciferase reporter, at 10 µM, stronger effect = higher value
# cutoff 10% applies to inhibition; >= gives T, < gives F

Reported inhibition reaches at least 10% for "FC(F)(F)COc1nc(N2CCCCC2)nc(N2CCNCC2)n1" ? F

Item "Cc1ccc(-c2nnc3ccc(SCC(=O)NCc4ccco4)nn23)cc1" with inhibition of 10% or above? F

Determine whether measured inhibition meets or exceeds 10% for COc1ccc(CN(C(=O)CNC(=O)c2ccco2)C(C(=O)NC2CCCC2)c2ccco2)cc1 (configuration not stated) F

I'd appreciate it if you could say whether "O=C(O)CCC(=O)Nc1nc(-c2ccccc2)cs1" has inhibition at least equal to 10%. T

Decide: is the reported value of inhibition for "COc1ccccc1C(=O)n1nc(-c2ccccc2)nc1N" equal to or greater than 10%? T

Please indicate if the recorded inhibition for "Cc1cnc(C(=O)Nc2ccc(-n3cnnn3)cc2)cn1" meets or exceeds 10%. T

State whether the measured inhibition reaches 10%, counting equality as reaching it, for "COC(=O)c1oc2ccc(OC)cc2c1N" F

Say whether "O=C(CN1C(=O)c2cccc3cccc1c23)Nc1ccccc1C(=O)NCc1ccco1" shows inhibition of 10% or more. F

Confirm if inhibition reported for the compound "CCCCOc1ccc(-c2nnn(CC(=O)NCc3ccco3)n2)cc1" is 10% or above. T

Determine whether this compound has inhibition no lower than 10%: "Cc1[nH]c(=O)[nH]c(=O)c1S(=O)(=O)Nc1ccc(Oc2ccccc2)cc1" T

In plain terms: is recorded inhibition at least 10% for "Cc1cc(SCC(N)=O)nc(SCC(=O)c2ccccc2)n1" ? T

Is reported inhibition greater than or equal to 10% here: "O=C1CCc2nc3sc4c(c3c(=O)n2N1)CCCC4" F

Could you please find out whether "O=C(Nc1cccc(C(F)(F)F)c1)c1cccnc1N1CCCC1" has inhibition that meets 10% or exceeds it? T

# check: inhibition of "c1cnn(-c2cc(N3CCOCC3)ncn2)c1" is greater than or equal to 10% F

Would you say "COc1ccccc1-n1nnnc1SCc1ccccc1" shows inhibition at minimum 10%? T

inhibition >= 10% for CCOP(=O)(c1ccc(N(C)C)cc1)C(O)c1cc(OC)c(OC)c(OC)c1 (configuration not stated) ? F

In plain terms: is recorded inhibition at least 10% for "CCN(CC)c1ccc(NC(=O)c2[nH]c(C)c(C(C)=O)c2C)c(C)c1" ? F

Decide: is the reported value of inhibition for "CC1(C)CC(=O)c2cnc(NC(=O)CSc3nc4ccccc4o3)nc2C1" equal to or greater than 10%? F

Answer whether inhibition of "O=C(Nc1cc(Cl)ccc1Cl)c1noc2c1CCCC2" is greater than or equal to 10%. F

Does the reported inhibition for "CS(=O)(=O)N(CC(=O)NCc1ccccn1)c1ccc2c(c1)OCCO2" fall at or above the 10% mark? T

Determine whether measured inhibition meets or exceeds 10% for "O=c1n(CCCN2CCN(c3cccc(Cl)c3)CC2)nc2ccccn12" T

Answer whether inhibition of "COC(=O)c1[nH]c2ccccc2c1NC(=O)CN1CCC(C(N)=O)(N2CCCCC2)CC1" is greater than or equal to 10%. T

Can "O=C(Nc1ccc(S(=O)(=O)NC2CCCC2)cc1)c1cnccn1" be said to have inhibition at or above 10%? T

Reported inhibition reaches at least 10% for "c1coc(-c2nnc(-c3cccs3)o2)c1" ? F

hey, is inhibition for this one >= 10%? "Cc1cccn2c(=O)c3cc(C#N)c(=O)n(CCCN4CCOCC4)c3nc12" T

Is inhibition at least 10%? Consider "CCCn1c(NCc2cc(C)ccc2O)nc2ccccc21" T

Check the entry "CC1CCN(C(=O)Cn2c(=O)oc3ccccc32)CC1" : does inhibition equal or exceed 10%? F

Quick check: does "CCN1CCN(C(=O)c2ccc3c(=O)n(CCC4=CCCCC4)c(=O)[nH]c3c2)CC1" have inhibition greater than or equal to 10%? F

Is reported inhibition greater than or equal to 10% here: "CC(=O)N1C(=O)c2cccc3cccc(c23)C(=O)N1C(C)=O" T

Hi, just wondering whether "NS(=O)(=O)c1cc2c(cc1Cl)NCNS2(=O)=O" shows inhibition of 10% or higher. T

Please check the record "Brc1ccc(-c2cn3cccnc3n2)cc1" and state if its inhibition is at or above 10%. F

Check this compound for inhibition at or above 10%: CC(C)[N+]1(C)[C@@H]2CC[C@H]1CC(OC(=O)C(CO)c1ccccc1)C2 (some centres not stated) F

API: above_or_equal(metric=inhibition, cutoff=10%) for item "COC(=O)c1c(-c2ccc(F)cc2)noc1N" F

Kindly determine if inhibition recorded for O=C(COC(=O)Cc1cccc(C(F)(F)F)c1)NCC1CCCO1 (configuration not stated) is above or exactly 10%. F

inhibition >= 10% for "CCC(=O)N1CCCc2cc(S(=O)(=O)N3CCCc4ccccc43)ccc21" ? T

Does the reported inhibition for "CC(C)=CC(=O)Nc1ccc(Br)cc1" fall at or above the 10% mark? F

// inclusive: inhibition at least 10%? input: "O=C(c1ccccc1)c1coc2ccc(O)c(CN3CCOCC3)c12" T

Kindly determine if inhibition recorded for "COC(=O)c1cc(Oc2ccc(C(=O)OC)cc2N)cc(C(=O)OC)c1" is above or exactly 10%. F

Tell me whether inhibition is at least 10% here: "COc1ccc2c(C(=O)CN(C)C3CCCCC3)c[nH]c2c1" T

I'd appreciate it if you could say whether "O=C1C=C(NCc2ccco2)C2(CCCCC2)O1" has inhibition at least equal to 10%. T

Is inhibition for "Cc1n[nH]c(C)c1S(=O)(=O)Nc1ccc2c(c1)OCCO2" at or above 10%? T

Threshold query (inhibition >= 10%) on "Cc1cc(S(=O)(=O)n2cnc3ccccc32)c(C)cc1Cl" F
